# SYSTEM UNDER TEST: TEAD4 YAP50-100 (Homo sapiens, UniProt Q15561)
# Sequence (Q15561 217-434 limits assumed): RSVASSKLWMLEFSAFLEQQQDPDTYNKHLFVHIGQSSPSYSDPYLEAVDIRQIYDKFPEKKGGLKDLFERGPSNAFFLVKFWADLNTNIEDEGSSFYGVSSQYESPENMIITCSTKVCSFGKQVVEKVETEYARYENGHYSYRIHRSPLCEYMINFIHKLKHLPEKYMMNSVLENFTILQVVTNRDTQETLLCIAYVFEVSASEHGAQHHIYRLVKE
# TEST SUMMARY: TEAD4-YAP HTRF (TR-FRET) protein-protein interaction assay
# RECORDED CONDITIONS: TEAD4, YAP peptide 50-100, HTRF; read-out: TEAD4 YAP50-100 HTRF combined: EC50
ASSAY READOUT: EC50 (nM)

Examples with their reported EC50 follow.
1) O=C(c1c(C2CNCCO2)nn2c(=O)cc(-c3ccc(C4CCCCC4)cc3)[nH]c12)N1CC(CF)C1 (single isomer, unassigned) [Enantiomer B, Example 63]	1090
2) CC1CCN1C(=O)c1nn2c(=O)cc(-c3ccc(C4CCCCC4)cc3)[nH]c2c1C(=O)N1CC(CF)C1 (single isomer, unassigned) [Enantiomer B, Example 33]	670

1. C[C@H]1[C@@H](CF)CN1C(=O)c1c(-c2cnccn2)nn2c(=O)cc(-c3ccc(CC4CCCC4)cc3)[nH]c12 (single isomer, unassigned) [Isomer A, Example 44]
2. Cc1ccnc(-c2nn3c(=O)cc(-c4ccc(C5CCCCC5)cc4)[nH]c3c2C(=O)N2CC(CF)C2)n1 [Compound 9]
Identify the entry with the larger EC50. Options: 1 and 2 To answer, give the label that identifies your chosen option. 1
